Overview of recorded apparent KD of MS2 coat protein for various sequences
System: MS2 coat protein
Experiment: apparent KD of MS2 coat protein; designed switch direction (-1 OFF switch, 1 ON switch): 1; higher = weaker reporter binding
Conditions: Eterna round: R95; input ligand: FMN 200 uM
Readout name: apparent KD of MS2 coat protein (nM)

{"columns": ["Sequence record", "Readout name", "Reported result"],
 "data": [
  ["AACAAUCUAUCUGAGGAUAUCAUGAGAAGAACAUGAGGAUCACCCAUGUGCAGGAAAACUGCAUAUGAGAAGGCAGAUAGAUUGG [Mat - Same State 2 - Mod - D18] (puzzle: Same State 2)", "apparent KD of MS2 coat protein", 52.8],
  ["UACAAUCUAUCUCAGGAUAUCAUGUCAAAGACAUGAGGAUCACCCAUGUACCAGGAAACUGGUUAUGAGAAGGGAGAUAGAUUGA [Mat - Same State 2 - Mod - D25] (puzzle: Same State 2)", "apparent KD of MS2 coat protein", 119],
  ["AAGACAUUUGCUUAGGAUAUACAGGGCUCCACAUGAGGAUCACCCAUGUUAAAAGAGGAGUAAAUGUAGAAGGAAGCCUCCAAUA [Zazaes] (puzzle: Same State 2)", "apparent KD of MS2 coat protein", 19.1],
  ["AUUAAACAUGAGGAUCACCCAUGUCAACAAUGUCGAGGAUAUGGGCAAAUAAAAUAAGAACCAGAAGGCGAAUAAU [salish99_ss1_r3_076] (puzzle: Same State 1)", "apparent KD of MS2 coat protein", 39.9],
  ["CGUCCAGCCUGAGCUGGACAAAAGCAUGUACAUGAGGAUCACCCAUGUUCAUGUACAAGCUUUUUGCUCGUCUUAUC [salish99_208a_r3_055] (puzzle: Sensor for hsa-mir-208a)", "apparent KD of MS2 coat protein", 597]
]}
